- assay system: human CYP2C19 (Homo sapiens, UniProt P33261)
- Sequence (P33261 whole entry): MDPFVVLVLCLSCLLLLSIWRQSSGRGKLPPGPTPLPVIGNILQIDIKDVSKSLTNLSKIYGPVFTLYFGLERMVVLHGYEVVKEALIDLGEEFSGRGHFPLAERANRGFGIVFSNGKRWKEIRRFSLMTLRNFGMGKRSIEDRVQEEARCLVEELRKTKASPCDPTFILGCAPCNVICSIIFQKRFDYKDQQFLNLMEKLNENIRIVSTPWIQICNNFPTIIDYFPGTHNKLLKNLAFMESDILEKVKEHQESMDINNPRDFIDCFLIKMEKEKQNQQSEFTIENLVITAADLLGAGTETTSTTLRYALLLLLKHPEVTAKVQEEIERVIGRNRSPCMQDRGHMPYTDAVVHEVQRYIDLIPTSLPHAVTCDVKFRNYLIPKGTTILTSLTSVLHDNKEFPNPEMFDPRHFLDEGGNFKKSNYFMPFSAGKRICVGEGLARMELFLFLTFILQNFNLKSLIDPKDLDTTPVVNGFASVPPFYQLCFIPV
- assay name: biochemical
- condition info: CYP2C19 IC50 (half-maximal inhibitory concentration)
Structures can show the parent of a compound that is named as a salt.
property measured: log10 of IC50 (log10 of the value in nM)

compound=Brc1cc2ccccc2c2ccccc12 assay_system="human CYP2C19 (Homo sapiens, UniProt P33261)" test_result=4.47
compound="CC(C)(C)C(O)(CCc1ccc(Cl)cc1)Cn1cncn1 (stereo not shown)" assay_system="human CYP2C19 (Homo sapiens, UniProt P33261)" test_result=2.65
compound=CO/N=C(/C(=O)OC)c1ccccc1COc1ccccc1C assay_system="human CYP2C19 (Homo sapiens, UniProt P33261)" test_result=2.71
compound=CC(O)(c1ccc(Cl)cc1)c1ccc(Cl)cc1 assay_system="human CYP2C19 (Homo sapiens, UniProt P33261)" test_result=2.08
compound=Cl[C@H]1[C@H](Cl)[C@@H](Cl)[C@H](Cl)[C@@H](Cl)[C@H]1Cl assay_system="human CYP2C19 (Homo sapiens, UniProt P33261)" test_result=3.36
compound=O=c1c(-c2ccc(O)cc2)coc2cc(O)ccc12 assay_system="human CYP2C19 (Homo sapiens, UniProt P33261)" test_result=4.56
compound=NS(=O)(=O)C(F)(F)C(F)(F)C(F)(F)C(F)(F)C(F)(F)C(F)(F)C(F)(F)C(F)(F)F assay_system="human CYP2C19 (Homo sapiens, UniProt P33261)" test_result=4.81
compound=Clc1ccc(C(c2ccc(Cl)cc2)C(Cl)Cl)cc1 assay_system="human CYP2C19 (Homo sapiens, UniProt P33261)" test_result=2.08
compound="O=C(Nc1ccccc1)OCC(CN1CCCCC1)OC(=O)Nc1ccccc1 (stereo not shown) [Diperodon hydrochloride]" assay_system="human CYP2C19 (Homo sapiens, UniProt P33261)" test_result=3.85
compound=O=C(NCCc1c[nH]c2ccccc12)c1cccnc1 assay_system="human CYP2C19 (Homo sapiens, UniProt P33261)" test_result=3.92
compound="CN(C)c1ccc(C(=N)c2ccc(N(C)C)cc2)cc1 [Auramine hydrochloride]" assay_system="human CYP2C19 (Homo sapiens, UniProt P33261)" test_result=4.32
compound="Fc1ccc([C@]2(Cn3cncn3)O[C@H]2c2ccccc2Cl)cc1 (racemic)" assay_system="human CYP2C19 (Homo sapiens, UniProt P33261)" test_result=2.53
compound=COc1ccc(-c2coc3cc(O)ccc3c2=O)cc1 assay_system="human CYP2C19 (Homo sapiens, UniProt P33261)" test_result=4.79
compound="CC(C)(C)C(=O)C(Oc1ccc(Cl)cc1)n1cncn1 (stereo not shown)" assay_system="human CYP2C19 (Homo sapiens, UniProt P33261)" test_result=3.28
compound="CC(C)[N+](C)(CCC(C(N)=O)(c1ccccc1)c1ccccc1)C(C)C [Isopropamide]" assay_system="human CYP2C19 (Homo sapiens, UniProt P33261)" test_result=4.55
compound=COC(=O)c1c(C(F)F)nc(C(F)(F)F)c(C2=NCCS2)c1CC(C)C assay_system="human CYP2C19 (Homo sapiens, UniProt P33261)" test_result=3.73
compound=Clc1ccc(C2(Cn3cncn3)OCCO2)c(Cl)c1 assay_system="human CYP2C19 (Homo sapiens, UniProt P33261)" test_result=3.33
compound="COc1ccc(CN(CCN(C)C)c2ccccn2)cc1 [Pyrilamine maleate]" assay_system="human CYP2C19 (Homo sapiens, UniProt P33261)" test_result=4.20
compound="CCCC(=O)O[C@]1(C(=O)CCl)[C@@H](C)C[C@H]2[C@@H]3CCC4=CC(=O)C=C[C@]4(C)[C@@]3(F)C(=O)C[C@@]21C [Clobetasone butyrate]" assay_system="human CYP2C19 (Homo sapiens, UniProt P33261)" test_result=3.93
compound="COP(N)(=S)Oc1ccccc1C(=O)OC(C)C (stereo not shown)" assay_system="human CYP2C19 (Homo sapiens, UniProt P33261)" test_result=2.11
compound="CCn1ccnc1CC1COc2ccccc2O1 (stereo not shown)" assay_system="human CYP2C19 (Homo sapiens, UniProt P33261)" test_result=3.65
compound="CCCCOCCOCCOCc1cc2c(cc1CCC)OCO2 [Piperonyl butoxide]" assay_system="human CYP2C19 (Homo sapiens, UniProt P33261)" test_result=2.70
compound="O[C@@H](COc1cccc2ncccc12)CN1CCN([C@@H]2c3ccccc3[C@@H]3[C@H](c4ccccc42)C3(F)F)CC1 [Zosuquidar trihydrochloride]" assay_system="human CYP2C19 (Homo sapiens, UniProt P33261)" test_result=4.31
compound="COc1ccc(C(O)(c2cncnc2)C2CC2)cc1 (stereo not shown)" assay_system="human CYP2C19 (Homo sapiens, UniProt P33261)" test_result=4.29
compound="CC(Cc1ccccc1)NCCn1cnc2c1c(=O)n(C)c(=O)n2C (stereo not shown) [Fenethylline hydrochloride]" assay_system="human CYP2C19 (Homo sapiens, UniProt P33261)" test_result=4.93
compound=CCOC(=O)[C@H](CCc1ccccc1)N[C@H]1CCc2ccccc2N(CC(=O)O)C1=O assay_system="human CYP2C19 (Homo sapiens, UniProt P33261)" test_result=3.84
compound=O=C(Nc1ccc(Cl)c(Cl)c1)C1CC1 assay_system="human CYP2C19 (Homo sapiens, UniProt P33261)" test_result=4.08
compound="Clc1ccc(C(Cn2ccnc2)OCc2ccsc2Cl)c(Cl)c1 (stereo not shown)" assay_system="human CYP2C19 (Homo sapiens, UniProt P33261)" test_result=2.40
compound=O=S(=O)(Oc1ccc(Cl)cc1)c1ccc(Cl)cc1 assay_system="human CYP2C19 (Homo sapiens, UniProt P33261)" test_result=2.15
compound="CC(C)(C)C(O)C(Oc1ccc(Cl)cc1)n1cncn1 (stereo not shown)" assay_system="human CYP2C19 (Homo sapiens, UniProt P33261)" test_result=3.14
compound="CCC1COC(Cn2cncn2)(c2ccc(Cl)cc2Cl)O1 (stereo not shown)" assay_system="human CYP2C19 (Homo sapiens, UniProt P33261)" test_result=2.51
compound="Clc1ccc(C(c2ccccc2Cl)C(Cl)(Cl)Cl)cc1 (stereo not shown)" assay_system="human CYP2C19 (Homo sapiens, UniProt P33261)" test_result=2.54
compound=Nc1ccc(N)c2c1C(=O)c1ccccc1C2=O assay_system="human CYP2C19 (Homo sapiens, UniProt P33261)" test_result=4.39
compound="CCCC1COC(Cn2cncn2)(c2ccc(Cl)cc2Cl)O1 (stereo not shown)" assay_system="human CYP2C19 (Homo sapiens, UniProt P33261)" test_result=2.72
compound="CCNP(=S)(OC)O/C(C)=C/C(=O)OC(C)C (stereo not shown)" assay_system="human CYP2C19 (Homo sapiens, UniProt P33261)" test_result=1.90
compound=COc1ccc(C(c2ccc(OC)cc2)C(Cl)(Cl)Cl)cc1 assay_system="human CYP2C19 (Homo sapiens, UniProt P33261)" test_result=2.93
compound="CCOP(=S)(NC(C)C)Oc1ccccc1C(=O)OC(C)C (stereo not shown)" assay_system="human CYP2C19 (Homo sapiens, UniProt P33261)" test_result=2.28

* * *

- assay system: CYP3A4 (Homo sapiens, UniProt P08684)
- Sequence (P08684 whole entry): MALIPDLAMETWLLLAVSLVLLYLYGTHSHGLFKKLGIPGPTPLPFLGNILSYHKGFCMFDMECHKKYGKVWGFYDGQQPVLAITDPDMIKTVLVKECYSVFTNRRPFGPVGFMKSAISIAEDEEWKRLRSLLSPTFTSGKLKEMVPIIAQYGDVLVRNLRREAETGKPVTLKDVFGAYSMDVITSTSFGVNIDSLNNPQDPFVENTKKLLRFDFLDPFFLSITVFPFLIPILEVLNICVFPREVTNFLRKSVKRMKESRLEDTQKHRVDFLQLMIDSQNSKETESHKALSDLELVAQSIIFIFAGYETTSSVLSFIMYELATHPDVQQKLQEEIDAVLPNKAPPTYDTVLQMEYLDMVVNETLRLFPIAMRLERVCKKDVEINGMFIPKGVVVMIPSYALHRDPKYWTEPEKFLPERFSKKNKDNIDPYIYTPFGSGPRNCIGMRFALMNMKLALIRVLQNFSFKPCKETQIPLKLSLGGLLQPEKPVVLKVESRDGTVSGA
- assay name: biochemical
- condition info: CYP3A4 IC50 (half-maximal inhibitory concentration)
Structures can show the parent of a compound that is named as a salt.
property measured: IC50 (nM)

compound=CCOP(=S)(OCC)SCCS(=O)(=O)CC assay_system="CYP3A4 (Homo sapiens, UniProt P08684)" property_measured=IC50 test_result=2610
compound="CN(C)c1ccc(C(=N)c2ccc(N(C)C)cc2)cc1 [Auramine hydrochloride]" assay_system="CYP3A4 (Homo sapiens, UniProt P08684)" property_measured=IC50 test_result=39300
compound="CC(C)(C)C(O)(CCc1ccc(Cl)cc1)Cn1cncn1 (stereo not shown)" assay_system="CYP3A4 (Homo sapiens, UniProt P08684)" property_measured=IC50 test_result=210
compound=CCCOC/C(=N\c1ccc(Cl)cc1C(F)(F)F)n1ccnc1 assay_system="CYP3A4 (Homo sapiens, UniProt P08684)" property_measured=IC50 test_result=210
compound=O=[N+]([O-])c1cc(C(F)(F)F)c(Cl)c([N+](=O)[O-])c1Nc1ncc(C(F)(F)F)cc1Cl assay_system="CYP3A4 (Homo sapiens, UniProt P08684)" property_measured=IC50 test_result=18700
compound=CCCCOCN(C(=O)CCl)c1c(CC)cccc1CC assay_system="CYP3A4 (Homo sapiens, UniProt P08684)" property_measured=IC50 test_result=6900
compound=CCOP(=S)(OCC)Oc1ccc(Cl)cc1Cl assay_system="CYP3A4 (Homo sapiens, UniProt P08684)" property_measured=IC50 test_result=2220
compound=N#Cc1c(Cl)c(Cl)c(Cl)c(C#N)c1Cl assay_system="CYP3A4 (Homo sapiens, UniProt P08684)" property_measured=IC50 test_result=1110
compound=CCOP(=S)(OCC)Oc1ccc([N+](=O)[O-])cc1 assay_system="CYP3A4 (Homo sapiens, UniProt P08684)" property_measured=IC50 test_result=3180
compound="CC(C)C(O)(c1ccc(OC(F)(F)F)cc1)c1cncnc1 (stereo not shown)" assay_system="CYP3A4 (Homo sapiens, UniProt P08684)" property_measured=IC50 test_result=540
